- Experimental system: RhoC C20S (Homo sapiens, UniProt P08134, C20S)
- Sequence (P08134 whole entry C20S): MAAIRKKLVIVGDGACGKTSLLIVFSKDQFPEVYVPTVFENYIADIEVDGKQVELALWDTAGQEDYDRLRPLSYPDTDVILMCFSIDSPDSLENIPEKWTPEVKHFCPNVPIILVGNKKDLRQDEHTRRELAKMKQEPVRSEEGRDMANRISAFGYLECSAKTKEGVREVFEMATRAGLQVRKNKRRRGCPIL
- Assay name: Competitive binding assay, [3H]GDP-loaded Rho protein titrated with 6-TGDP (FIG. 16A)
- Design: made in house; host or cells: E. coli
- Recorded conditions: determined within this study; read-out: trueKD for GDP
Endpoint: pKd
Hey, just a heads up that pKd is the negative log base 10 of the concentration in molar.

Note pKd for the compound shown: "Nc1nc2c(ncn2[C@@H]2O[C@H](COP(=O)(O)OP(=O)(O)O)[C@@H](O)[C@H]2O)c(=O)[nH]1"
4.85

###

- Experimental system: UniProtKB P01112
- Sequence (P01112 whole entry): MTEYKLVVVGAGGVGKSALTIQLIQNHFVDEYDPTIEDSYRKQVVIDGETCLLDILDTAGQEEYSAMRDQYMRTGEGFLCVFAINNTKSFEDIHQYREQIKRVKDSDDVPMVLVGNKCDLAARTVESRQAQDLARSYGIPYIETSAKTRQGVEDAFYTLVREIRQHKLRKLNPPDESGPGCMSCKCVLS
- Assay name: Guanine nucleotide exchange of [3H]GDP-loaded GTPase with 6-TGDP (FIG. 13A)
- Format: binding
- Recorded conditions: [3H]GDP-loaded GTPase 1 μM, 6-TGDP 0-2000 μM, 1 h, read-out: appKD for 6-TGDP
Endpoint: Kd (µM)
Please state the figure in µM; there is no need to write the unit.

Provide UniProtKB P01112 Kd reading for Nc1nc2c(ncn2[C@@H]2O[C@H](COP(=O)(O)OP(=O)(O)O)[C@@H](O)[C@H]2O)c(=S)[nH]1 [6-TGDP, 6-thioguanosine diphosphate] .
2300

Reference for the values: patent US8729047B2
